Source of measurements: PubChem BioAssay AID1963446

System: 993429-296-R-J1-PDC complex spheroid growth, percent test/control
Test: Anticancer human tumor 993429-296-R-J1-PDC patient-derived uterine sarcoma cell line growth inhibition [Asc]
Details: second compound 1 µM; first compound 0.3 µM; stronger effect = lower value
MEASURED_METRIC: viability, T/C (%)
The response must be a number in % with no trailing unit.

Data request: Need viability, T/C of NC(=O)C(=Cn1cnc(-c2cc(C(F)(F)F)cc(C(F)(F)F)c2)n1)c1cncnc1 + CNC(C)C(=O)NC1CN(S(=O)(=O)c2cccc(S(=O)(=O)N3CCC4CCC(C(=O)NC(c5ccccc5)c5ccccc5)N4C(=O)C(NC(=O)C(C)NC)C3)c2)CCC2CCC(C(=O)NC(c3ccccc3)c3ccccc3)N2C1=O , thanks.
Data returned: 5.77

Data request: Requested field: viability, T/C. Item: NC(=O)C(=Cn1cnc(-c2cc(C(F)(F)F)cc(C(F)(F)F)c2)n1)c1cncnc1 + Cc1c(S(C)(=O)=O)c(-c2cc(F)cc(N3CCN(c4ccc(NS(=O)(=O)c5ccc(NC(CCN6CCC(C(=O)OCCCP(=O)(O)O)CC6)CSc6ccccc6)c(S(=O)(=O)C(F)(F)F)c5)cc4)CC3)c2)c(-c2ccc(Cl)cc2)n1C(C)C
Data returned: 0.15

###

Tested on: 993429-296-R-J1-PDC complex spheroid growth, percent test/control
Assay: Anticancer human tumor 993429-296-R-J1-PDC cell line growth inhibition [Asc]; active means viability on the fitted dose curve at most 10% of control; inactive means the rest;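 also: spheroids exposed to compounds for seven days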
Conditions: second compound 10 µM; first compound 0.316 µM
Result category, one only: class 1 = active, class 0 = inactive

Data request: Short answer needed: outcome of this test for CCN1CCN(Cc2ccc(Nc3ncc(F)c(-c4cc(F)c5nc(C)n(C(C)C)c5c4)n3)nc2)CC1 + Cc1c(S(C)(=O)=O)c(-c2cc(F)cc(N3CCN(c4ccc(NS(=O)(=O)c5ccc(NC(CCN6CCC(C(=O)OCCCP(=O)(O)O)CC6)CSc6ccccc6)c(S(=O)(=O)C(F)(F)F)c5)cc4)CC3)c2)c(-c2ccc(Cl)cc2)n1C(C)C ?
Data returned: class 0

Data request: Which result was noted for this molecule in the test: C#Cc1c(F)ccc2cc(O)cc(-c3ncc4c(N5CC6CCC(C5)N6)nc(OCC56CCCN5CC(F)C6)nc4c3F)c12 (stereo not drawn) + Cc1c(S(C)(=O)=O)c(-c2cc(F)cc(N3CCN(c4ccc(NS(=O)(=O)c5ccc(NC(CCN6CCC(C(=O)OCCCP(=O)(O)O)CC6)CSc6ccccc6)c(S(=O)(=O)C(F)(F)F)c5)cc4)CC3)c2)c(-c2ccc(Cl)cc2)n1C(C)C
Data returned: class 0

Data request: Recorded test outcome, item CNC(C)C(=O)NC1CN(S(=O)(=O)c2cccc(S(=O)(=O)N3CCC4CCC(C(=O)NC(c5ccccc5)c5ccccc5)N4C(=O)C(NC(=O)C(C)NC)C3)c2)CCC2CCC(C(=O)NC(c3ccccc3)c3ccccc3)N2C1=O (stereo not drawn) + Cc1c(S(C)(=O)=O)c(-c2cc(F)cc(N3CCN(c4ccc(NS(=O)(=O)c5ccc(NC(CCN6CCC(C(=O)OCCCP(=O)(O)O)CC6)CSc6ccccc6)c(S(=O)(=O)C(F)(F)F)c5)cc4)CC3)c2)c(-c2ccc(Cl)cc2)n1C(C)C
Data returned: class 0

Data request: What call does the record list for O=C(c1ccc(F)c(F)c1Nc1ccc(I)cc1F)N1CC(O)([C@@H]2CCCCN2)C1 + Cc1c(S(C)(=O)=O)c(-c2cc(F)cc(N3CCN(c4ccc(NS(=O)(=O)c5ccc(NC(CCN6CCC(C(=O)OCCCP(=O)(O)O)CC6)CSc6ccccc6)c(S(=O)(=O)C(F)(F)F)c5)cc4)CC3)c2)c(-c2ccc(Cl)cc2)n1C(C)C ?
Data returned: class 1

Data request: Record lookup: outcome of this test for O=C(c1cc(Cc2n[nH]c(=O)c3ccccc23)ccc1F)N1CCN(C(=O)C2CC2)CC1 + Cc1c(S(C)(=O)=O)c(-c2cc(F)cc(N3CCN(c4ccc(NS(=O)(=O)c5ccc(NC(CCN6CCC(C(=O)OCCCP(=O)(O)O)CC6)CSc6ccccc6)c(S(=O)(=O)C(F)(F)F)c5)cc4)CC3)c2)c(-c2ccc(Cl)cc2)n1C(C)C ?
Data returned: class 0

Data request: Field: outcome | Entry: C=C(F)C(=O)N1CCN(c2nc(OCC3CCCN3C)nc3c2CCN(c2cccc4cccc(Cl)c24)C3)CC1CC#N (stereo not drawn) + Cc1c(S(C)(=O)=O)c(-c2cc(F)cc(N3CCN(c4ccc(NS(=O)(=O)c5ccc(NC(CCN6CCC(C(=O)OCCCP(=O)(O)O)CC6)CSc6ccccc6)c(S(=O)(=O)C(F)(F)F)c5)cc4)CC3)c2)c(-c2ccc(Cl)cc2)n1C(C)C
Data returned: class 0

Data request: What did this assay record as the result for COc1c(OCCCN2CCOCC2)ccc2c3n(c(=NC(=O)c4cnc(N)nc4)nc12)CCN3 + Cc1c(S(C)(=O)=O)c(-c2cc(F)cc(N3CCN(c4ccc(NS(=O)(=O)c5ccc(NC(CCN6CCC(C(=O)OCCCP(=O)(O)O)CC6)CSc6ccccc6)c(S(=O)(=O)C(F)(F)F)c5)cc4)CC3)c2)c(-c2ccc(Cl)cc2)n1C(C)C ?
Data returned: class 1

Data request: Hey, what did the test say about C=CC(=O)N1CCN(c2nc(=O)n(-c3c(C)ccnc3C(C)C)c3nc(-c4c(O)cccc4F)c(F)cc23)C(C)C1 (stereo not drawn) + Cc1c(S(C)(=O)=O)c(-c2cc(F)cc(N3CCN(c4ccc(NS(=O)(=O)c5ccc(NC(CCN6CCC(C(=O)OCCCP(=O)(O)O)CC6)CSc6ccccc6)c(S(=O)(=O)C(F)(F)F)c5)cc4)CC3)c2)c(-c2ccc(Cl)cc2)n1C(C)C ?
Data returned: class 0

###

Tested on: 993429-296-R-J1-PDC complex spheroid growth, percent test/control
Test: Anticancer human tumor 993429-296-R-J1-PDC cell line growth inhibition [Asc];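 also: spheroids exposed to compounds for seven days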
Details: second compound 0.316 µM; first compound 0.316 µM; stronger effect = lower value
Kindly state viability, T/C for each of the entries shown.
I only need the number, in %, no unit after it.

Data request: For C=CC(=O)N1CCN(c2nc(=O)n(-c3c(C)ccnc3C(C)C)c3nc(-c4c(O)cccc4F)c(F)cc23)C(C)C1 (stereo not drawn) + Cc1c(S(C)(=O)=O)c(-c2cc(F)cc(N3CCN(c4ccc(NS(=O)(=O)c5ccc(NC(CCN6CCC(C(=O)OCCCP(=O)(O)O)CC6)CSc6ccccc6)c(S(=O)(=O)C(F)(F)F)c5)cc4)CC3)c2)c(-c2ccc(Cl)cc2)n1C(C)C , what is its reported viability, T/C?
Data returned: 69.2

Data request: Look up viability, T/C: C=C(F)C(=O)N1CCN(c2nc(OCC3CCCN3C)nc3c2CCN(c2cccc4cccc(Cl)c24)C3)CC1CC#N (stereo not drawn) + Cc1c(S(C)(=O)=O)c(-c2cc(F)cc(N3CCN(c4ccc(NS(=O)(=O)c5ccc(NC(CCN6CCC(C(=O)OCCCP(=O)(O)O)CC6)CSc6ccccc6)c(S(=O)(=O)C(F)(F)F)c5)cc4)CC3)c2)c(-c2ccc(Cl)cc2)n1C(C)C
Data returned: 70.6

Data request: Request the reported viability, T/C associated with O=C(c1ccc(F)c(F)c1Nc1ccc(I)cc1F)N1CC(O)([C@@H]2CCCCN2)C1 + CNC(C)C(=O)NC1CN(S(=O)(=O)c2cccc(S(=O)(=O)N3CCC4CCC(C(=O)NC(c5ccccc5)c5ccccc5)N4C(=O)C(NC(=O)C(C)NC)C3)c2)CCC2CCC(C(=O)NC(c3ccccc3)c3ccccc3)N2C1=O
Data returned: 11

###

System: 993429-296-R-J1-PDC complex spheroid growth, percent test/control
Assay: Anticancer human tumor 993429-296-R-J1-PDC cell line growth inhibition [Asc];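 also: spheroids exposed to compounds for seven days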
Settings: second compound 0.1 µM; first compound 0.00949 µM; stronger effect = lower value
For each record, write down the corresponding viability, T/C.
Respond with the bare value in %.

Data request: Quick one: viability, T/C for Cc1nc(N2CCC3(CC2)COC(C)C3N)c(CO)nc1Sc1ccnc(N)c1Cl (stereo not drawn) + Cc1c(S(C)(=O)=O)c(-c2cc(F)cc(N3CCN(c4ccc(NS(=O)(=O)c5ccc(NC(CCN6CCC(C(=O)OCCCP(=O)(O)O)CC6)CSc6ccccc6)c(S(=O)(=O)C(F)(F)F)c5)cc4)CC3)c2)c(-c2ccc(Cl)cc2)n1C(C)C ?
Data returned: 71.1

Data request: Bench note: what viability, T/C did CCN1C(C(=O)NC23CCC(C(=O)O)(CC2)CC3)C(c2cccc(Cl)c2F)C2(C(=O)Nc3cc(Cl)ccc32)C12CCCCC2 (stereo not drawn) + CNC(C)C(=O)NC1CN(S(=O)(=O)c2cccc(S(=O)(=O)N3CCC4CCC(C(=O)NC(c5ccccc5)c5ccccc5)N4C(=O)C(NC(=O)C(C)NC)C3)c2)CCC2CCC(C(=O)NC(c3ccccc3)c3ccccc3)N2C1=O show?
Data returned: 58.9

Data request: Any idea what viability, T/C was measured for NC(=O)C(=Cn1cnc(-c2cc(C(F)(F)F)cc(C(F)(F)F)c2)n1)c1cncnc1 + CNC(C)C(=O)NC1CN(S(=O)(=O)c2cccc(S(=O)(=O)N3CCC4CCC(C(=O)NC(c5ccccc5)c5ccccc5)N4C(=O)C(NC(=O)C(C)NC)C3)c2)CCC2CCC(C(=O)NC(c3ccccc3)c3ccccc3)N2C1=O ?
Data returned: 48.1
